Attribution: PubChem BioAssay (NCATS)

Tested on: Dd2
run.description: qHTS profiling for inhibitors of Plasmodium falciparum proliferation (AID 504749); further: nearly all actives have a fitted effect of over 60% in size; further: potency means the concentration at half of the fitted maximal effect
condition.set: P. falciparum in erythrocytes, SYBR Green DNA, 72 h; series mostly up to 28.7 µM
Results filed as inconclusive are left out. The source made the active and inactive calls. The call rests on the fitted dose curve; in most records, active means well fitted inhibition curve with a large enough effect; inconclusive means small, poorly fitted or top-dose-only effect; inactive means flat fitted curve, though single readings scatter.
recorded.endpoint: Potency

// known answers, use as guide
NCCc1ccc(O)c(O)c1: inactive
OC(CN1CCC(Cc2ccc(F)cc2)CC1)c1ccc(Cl)cc1 (stereo not given): 2.51 µM (active)
Cn1cnc([N+](=O)[O-])c1Sc1ncnc2nc[nH]c12: inactive
COc1ccc2nc(S(=O)Cc3ncc(C)c(OC)c3C)[nH]c2c1 (stereo not given): inactive

Potency reported for this compound Nc1ccc(S(=O)(=O)Nc2ccnn2-c2ccccc2)cc1 : inactive

Form field Potency, entry CC(c1cc2ccccc2s1)N(O)C(N)=O (stereo not given) : inactive

What the record says about Cc1ccc(N(CC2=NCCN2)c2cccc(O)c2)cc1 : Potency is inactive

// Potency lookup, compound = Nc1nc2c(ncn2COCCO)c(=O)[nH]1 , result: inactive

Form field Potency, entry Cc1cc2c(C(C)C)c(O)c(O)c(C=O)c2c(O)c1-c1c(C)cc2c(C(C)C)c(O)c(O)c(C=O)c2c1O : 11.2 µM (active)

The compound listed as N#Cc1ccc(C(c2ccc(C#N)cc2)n2cncn2)cc1 has a reported Potency of inactive

----------
run.description: qHTS of pediatric cancer cell lines to identify multiple opportunities for drug repurposing: Primary screen for BT-37 cells (AID 1347094)
condition.set: BT-37 viability, CellTiter-Glo luminescence, 48 h; series mostly up to 57.3 µM
Procedure: Drug repurposing or repositioning has been offered as a strategy for drug development in oncology programs. This approach has special potential for childhood cancers and other rare or orphan diseases, where the expected return on new drug development has been a disincentive to pharmaceuticals. […] We employed a titration-based paradigm (quantitative high-throughput screening or qHTS), where all compounds were tested at multiple concentrations for their effect on cell viability. […]
Records with an inconclusive call do not appear. Activity calls are given as the source filed them. Calls follow the shape of the dose curve; as a rule, active = well fitted cell-killing curve with a large enough effect; inconclusive = small, poorly fitted or top-dose-only effect; inactive = flat fitted curve, though single readings scatter.
# output must be one of label 1 for active, label 0 for inactive

The following compounds have reported results that may help.
O=C1CCC(N2C(=O)c3ccccc3C2=O)C(=O)N1 (configuration not stated): label 0
CCCc1nc2c(C)cc(-c3nc4ccccc4n3C)cc2n1Cc1ccc(-c2ccccc2C(=O)O)cc1: label 0
COc1ccc(CC2=NN3C([C@@H](CCc4ccccc4)[C@@H](C)O)=NC(C)C3C(=O)N2)cc1OC (some centres not stated): label 0
CCn1cc(C(=O)O)c(=O)c2cc(F)c(N3CCNC(C)C3)c(F)c21 (configuration not stated): label 0

Query: I'd appreciate the recorded outcome for CN(C(=O)c1ccc(F)cc1C(F)(F)F)C1CCN(c2nnc(-c3ccnn3C)c3ccccc23)CC1 from this test.
Response: label 0

Query: Just curious, what result did CCc1ccc(CCOc2ccc(CC3SC(=O)NC3=O)cc2)nc1 (configuration not stated) get here?
Response: label 0

Query: Any idea what this test logged for O=C1[C@H](Cc2ccc(O)cc2)N2C(=O)CCN(C(=O)NCc3ccccc3)[C@H]2CN1Cc1cccc2ccccc12 ?
Response: label 1

----------
test.system: Tyrosine-protein kinase Yes (Homo sapiens)
run.description: qHTS for small molecule inhibitors of Yes1 kinase: Primary Screen (AID 686947); further: nearly all actives have a fitted effect of over 60% in size
condition.set: Yes1 kinase biochemical qHTS inhibition; series mostly up to 76.9 µM
Records with an inconclusive call do not appear. Calls of active or inactive are those of the source. Calls come from the whole dose curve; as a rule, active = well fitted inhibition curve with a large enough effect; inconclusive = small, poorly fitted or top-dose-only effect; inactive = no such curve, though single readings can be large or run the other way.
Please reply with one of these outcomes: y = active, n = inactive

Known results for compounds:
NC(=O)c1ccc(-c2nc(-c3ccc4c(c3)OCO4)c(-c3ccccn3)[nH]2)cc1: n
O=S(=O)(N=Cc1c(O)ccc2ccccc12)c1cccs1: n
N#Cc1ccc(C(c2ccc(C#N)cc2)n2cncn2)cc1: n
c1ccc(-c2nn3c(c2-c2ccnc4cc(OCCN5CCOCC5)ccc24)CCC3)nc1: y
O=C(O)[C@@H](c1ccc(OCc2ccc3ccccc3n2)cc1)C1CCCC1: n

Moving on to the next compound.
Query: Call for entry Nc1nc2ccc(OC(F)(F)F)cc2s1 :
Response: n
